# System: Staphylococcus aureus
# Assay name: Antibacterial activity against methicillin-resistant Staphylococcus aureus ATCC 33591 by agar method
# Type: functional
compounds and their reported MIC
Answer as a quantity: numeral, then unit.

smiles_data=O=C(/C=C/c1cnc2ccccc2c1)c1ccccn1 outcome_measure=MIC observed_value="8 mg/L"

Query block: What does the data say about its MIC? Entry: "O=C(/C=C/c1ccc2ncccc2c1)c1ccncc1"
Result block: 8 mg/L

Query block: // lookup MIC for "O=C(/C=C/c1ccc2ncccc2c1)c1ccccn1"
Result block: 8 mg/L
